# Test system: Cyperus iria
# assay protocol: Preemergence weed control under flooded paddy conditions, CYPIR (Rice Flatsedge)
# Assay type: in vivo
# experimental parameters: Rate 0.2500 kg/ha; preemergence, flooded paddy; rated three to four weeks after treatment
endpoint label: CYPIR herbicidal effect rating

{"molecule": "Cc1ccc(OCC(=O)OC(C)(C)C)c(-c2noc3ccc(-n4c(=O)cc(C(F)(F)F)n(C)c4=O)c(Cl)c23)c1 [Example 265]", "experimental target": "Cyperus iria", "numeric readout": 3.0}
{"molecule": "COc1c(-c2nsc3ccc(-n4c(=O)cc(C(F)(F)F)n(C)c4=O)cc23)ccc(C)c1C [Example 267]", "experimental target": "Cyperus iria", "numeric readout": 9.0}
{"molecule": "Cn1c(C(F)(F)F)cc(=O)n(-c2ccc3snc(-c4ccccc4OCC(=O)NS(C)(=O)=O)c3c2)c1=O [Example 268]", "experimental target": "Cyperus iria", "numeric readout": 7.5}
{"molecule": "CNC.Cn1c(C(F)(F)F)cc(=O)n(-c2ccc3snc(COCC(=O)O)c3c2)c1=O [Example 296]", "experimental target": "Cyperus iria", "numeric readout": 7.0}
